Biological target: Mitogen-activated protein kinase 9 (Homo sapiens)
Sequence (P45984 whole entry, the tested form may be a part): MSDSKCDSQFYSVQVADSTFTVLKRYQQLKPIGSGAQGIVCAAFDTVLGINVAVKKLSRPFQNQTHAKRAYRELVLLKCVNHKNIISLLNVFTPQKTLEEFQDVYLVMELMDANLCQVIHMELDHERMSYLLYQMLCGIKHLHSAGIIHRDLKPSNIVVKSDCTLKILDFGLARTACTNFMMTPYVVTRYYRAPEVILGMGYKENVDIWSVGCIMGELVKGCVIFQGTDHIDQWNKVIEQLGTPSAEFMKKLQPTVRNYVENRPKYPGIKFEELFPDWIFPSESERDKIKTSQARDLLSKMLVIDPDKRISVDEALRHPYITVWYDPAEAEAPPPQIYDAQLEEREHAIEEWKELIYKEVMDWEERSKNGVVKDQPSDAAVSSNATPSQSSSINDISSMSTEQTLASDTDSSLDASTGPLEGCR
Assay: Inhibition of His6-tagged JNK2 (unknown origin) assessed as reduction in c-Jun phosphorylation using GST-c-Jun (1 to 79 residues) and [gamma32P]ATP incubated for 1 hr by scintillation counting assay
pIC50: −log10 of the molar value.
Exercise: for every item that follows, state its recorded pIC50.

smiles.code | pIC50
O=C(O)c1ccc(C(=O)Nc2ccc3[nH]nc(-c4ccncc4)c3c2)cc1 | 5.00 to 6.00
Oc1cccc(-c2n[nH]c3ccc(-c4nnn[nH]4)cc23)c1 | 5.00 to 6.30
NC(=O)c1ccc2[nH]nc(-c3cccc(NC(=O)Cc4ccsc4)c3)c2c1 | 5.00 to 6.00
CN(C)CCNC(=O)c1ccc2[nH]nc(-c3ccc(F)cc3)c2c1 | ≥ 5.00
NC(=O)c1ccc2[nH]nc(-c3cccc(N)c3)c2c1 | 5.00 to 6.00

Would you be so kind as to report pIC50 for each listed record?
1. COc1ccccc1-c1n[nH]c2ccc(-c3nnn[nH]3)cc12
2. CCCCC(=O)Nc1cccc(-c2n[nH]c3ccc(-c4nc[nH]n4)cc23)c1
3. NC(=O)c1ccc2[nH]nc(-c3cccc(NC(=O)Cc4ccccn4)c3)c2c1
4. CCCc1n[nH]c(-c2ccc3[nH]nc(-c4ccc(F)cc4)c3c2)n1
5. O=C(Nc1ccccn1)c1ccc2[nH]nc(-c3ccc(F)cc3)c2c1
6. Nc1ccc2[nH]nc(-c3ccccc3)c2c1

*A*
1. 5.00 to 6.00
2. 5.00 to 6.30
3. 5.00 to 6.00
4. 5.00 to 6.00
5. ≥ 5.00
6. ≥ 5.00

###

Hi there, I'd appreciate the recorded pIC50 for every entry that follows.
Target: Mitogen-activated protein kinase 9 (Homo sapiens)
Test: Inhibition of His6-tagged JNK2 (unknown origin) assessed as reduction in c-Jun phosphorylation using GST-c-Jun (1 to 79 residues) and [gamma32P]ATP incubated for 1 hr by scintillation counting assay
pIC50: −log10 of the molar value.

Illustrative cases are given below, each with its answer.
smiles.code | target.or.test.system | pIC50
Nc1ccc2[nH]nc(-c3cccc(C(F)(F)F)c3)c2c1 | Mitogen-activated protein kinase 9 (Homo sapiens) | ≥ 5.00
NC(=O)c1ccc2[nH]nc(-c3cccc(NC(=O)C4CC4)c3)c2c1 | Mitogen-activated protein kinase 9 (Homo sapiens) | 5.00 to 6.00
O=C(O)CCCCNC(=O)c1ccc2[nH]nc(-c3ccc(F)cc3)c2c1 | Mitogen-activated protein kinase 9 (Homo sapiens) | 5.00 to 6.00
NCCCNC(=O)c1ccc2[nH]nc(-c3ccc(F)cc3)c2c1 | Mitogen-activated protein kinase 9 (Homo sapiens) | 5.00 to 6.00
O=C(Nc1cccc([N+](=O)[O-])c1)c1ccc2[nH]nc(-c3ccc(F)cc3)c2c1 | Mitogen-activated protein kinase 9 (Homo sapiens) | 5.00 to 6.00

# per-item lookup of pIC50; items listed below
1. O=C(O)/C=C/c1ccc2[nH]nc(-c3ccc(F)cc3)c2c1
2. NC(=O)c1ccc2[nH]nc(-c3ccc(O)cc3)c2c1
3. CN(C)Cc1nc(-c2ccc3[nH]nc(-c4cccc(C(=O)NC(C)(C)C)c4)c3c2)n[nH]1
4. COCC(=O)Nc1cccc(-c2n[nH]c3ccc(-c4nn[nH]n4)cc23)c1

*A*
1: 5.00 to 6.00; 2: 5.00 to 6.00; 3: 5.00 to 6.30; 4: 5.00 to 6.30

*Q* Can you look up the measured pIC50 of `O=S(=O)(Nc1ccc2[nH]nc(-c3ccc(F)cc3)c2c1)c1ccccc1` for me?
*A* ≥ 5.00
